- System: TGF-β-stimulated SMAD3 phosphorylation in BEAS-2B cells
- Procedure summary: Cellular ALK5 potency assay, inhibition of TGF-β stimulated pSMAD3 formation in BEAS-2B cells
- Type: cell-based
- Test conditions: Homo sapiens, pSMAD3, TGF-β 10 ng/mL, read-out: BEAS2B pIC50 (converted)
Record form. Attribute: IC50. Fill in for each entry.

Lookup: Item "COC(=O)c1cnc(-c2cccc(C)n2)nc1Nc1ccnc(Nc2ccc(N)cc2)n1" with TGF-β-stimulated SMAD3 phosphorylation in BEAS-2B cells - IC50?
Found: 25.1 to 158 nM

Lookup: Request body: readout IC50, system TGF-β-stimulated SMAD3 phosphorylation in BEAS-2B cells, query "Cc1cccc(-c2nccc(Nc3ccnc(Nc4ccc(OCCO)cc4)n3)n2)n1" . Return the value.
Found: 25.1 to 158 nM

Lookup: Provide value of IC50 for this record tested with TGF-β-stimulated SMAD3 phosphorylation in BEAS-2B cells: COC(=O)C1CN(Cc2ccc(Nc3nccc(Nc4ccnc(-c5cccc(C)n5)n4)n3)cc2)CCN1C (stereo not shown)
Found: 25.1 to 158 nM

Lookup: Request body: readout IC50, system TGF-β-stimulated SMAD3 phosphorylation in BEAS-2B cells, query "CC(=O)N1CC(CNc2ccc(Nc3nccc(Nc4ccnc(-c5cccc(C)n5)n4)n3)cc2)C1" . Return the value.
Found: 25.1 to 158 nM

Lookup: Form entry - test system: TGF-β-stimulated SMAD3 phosphorylation in BEAS-2B cells; read-out: IC50; compound: "Cc1cccc(-c2nccc(Nc3ccnc(Nc4ccc(S(=O)(=O)N5CCN(C(C)(C)C)CC5)cc4)n3)n2)n1"
Found: 25.1 to 158 nM

Lookup: Form field - read-out: IC50; system: TGF-β-stimulated SMAD3 phosphorylation in BEAS-2B cells; submitted item: "Cc1cccc(-c2nccc(Nc3ccnc(Nc4ccc(Br)cc4)n3)n2)n1"
Found: 25.1 to 158 nM

Lookup: Under TGF-β-stimulated SMAD3 phosphorylation in BEAS-2B cells: IC50 value of "Cc1cccc(-c2nccc(Nc3ccnc(Nc4ccc(-c5cn[nH]c5)cc4)n3)n2)n1" ?
Found: ≤ 20 nM

Lookup: Request - read-out IC50 | tested on TGF-β-stimulated SMAD3 phosphorylation in BEAS-2B cells | compound "Cc1cccc(-c2nccc(Nc3ccnc(Nc4cncc(C(=O)OC[C@@H]5CCNC5)c4)n3)n2)n1"
Found: 25.1 to 158 nM

Lookup: For TGF-β-stimulated SMAD3 phosphorylation in BEAS-2B cells, provide IC50 of "Cc1cccc(-c2nccc(Nc3ccnc(Nc4cccc(C(=O)O)c4)n3)n2)n1" please.
Found: 1580 to 10000 nM

Lookup: API: value(readout=IC50, system=TGF-β-stimulated SMAD3 phosphorylation in BEAS-2B cells) for record "COCCn1cc(-c2ccc(Nc3nccc(Nc4ccnc(-c5cccc(C)n5)n4)n3)cc2)cn1"
Found: 25.1 to 158 nM

Lookup: Provide the documented IC50 with TGF-β-stimulated SMAD3 phosphorylation in BEAS-2B cells as the system for "Cc1cccc(-c2nccc(Nc3ccnc(Nc4ccc(CN5CC(N(C)C)C5)cc4)n3)n2)n1"
Found: 25.1 to 158 nM

Lookup: Please tell me: IC50 of "Cc1cccc(-c2nccc(Nc3ccnc(Nc4nc(C(=O)OC[C@H]5CCCN5)cs4)n3)n2)n1" , system TGF-β-stimulated SMAD3 phosphorylation in BEAS-2B cells?
Found: 25.1 to 158 nM

Lookup: Lab note: need IC50 with TGF-β-stimulated SMAD3 phosphorylation in BEAS-2B cells for entry "Cc1cccc(-c2nccc(Nc3ccnc(Nc4ccc(CN5C[C@H](C)NC[C@@H]5C)cc4)n3)n2)n1" , please look it up.
Found: 25.1 to 158 nM

Lookup: Notebook: pull reported IC50 for TGF-β-stimulated SMAD3 phosphorylation in BEAS-2B cells, entry "Cc1cccc(-c2nccc(Nc3ccnc(Nc4ccc(C(=O)OCC5CNC5)nc4)n3)n2)n1"
Found: 25.1 to 158 nM

Lookup: Enter reported IC50 observed with TGF-β-stimulated SMAD3 phosphorylation in BEAS-2B cells for "Cc1cccc(-c2nccc(Nc3ccnc(Nc4ccc(Cl)c(N)c4)n3)n2)n1"
Found: ≤ 20 nM

Lookup: Lab note: need IC50 with TGF-β-stimulated SMAD3 phosphorylation in BEAS-2B cells for entry "Cc1cccc(-c2nccc(Nc3ccnc(Nc4cc(F)c(NC(=O)C5CCNCC5)c(Cl)c4)n3)n2)n1" , please look it up.
Found: 25.1 to 158 nM

Lookup: # query: IC50 | item "COC(=O)[C@H]1CN(Cc2ccc(Nc3nccc(Nc4ccnc(-c5cccc(C)n5)n4)n3)cc2)CCN1" | system: TGF-β-stimulated SMAD3 phosphorylation in BEAS-2B cells
Found: ≤ 20 nM

Lookup: Query the reported IC50 for TGF-β-stimulated SMAD3 phosphorylation in BEAS-2B cells; item: Cc1cccc(-c2nccc(Nc3ccnc(Nc4ccc(N5CCNCC5CC(=O)OC5CNC5)cc4)n3)n2)n1 (stereo not shown)
Found: 200 to 1260 nM

Lookup: So what IC50 did Cc1cccc(-c2nccc(Nc3ccnc(Nc4ccc(CN5[C@H]6CCNC[C@@H]5CC6)cc4)n3)n2)n1 (racemic) get with TGF-β-stimulated SMAD3 phosphorylation in BEAS-2B cells?
Found: 25.1 to 158 nM

Lookup: Notebook: pull reported IC50 for TGF-β-stimulated SMAD3 phosphorylation in BEAS-2B cells, entry "Cc1cccc(-c2nc(Nc3ccnc(Nc4ccc(C(=O)NC5CCNCC5)cc4)n3)c3cccn3n2)n1"
Found: 25.1 to 158 nM

Lookup: Enter reported IC50 observed with TGF-β-stimulated SMAD3 phosphorylation in BEAS-2B cells for "Cc1cccc(-c2nccc(Nc3ccnc(Nc4csc(C(=O)OC[C@H]5CCCN5)c4)n3)n2)n1"
Found: 25.1 to 158 nM

Lookup: Lab request: please report IC50 under test system TGF-β-stimulated SMAD3 phosphorylation in BEAS-2B cells for "Cc1cccc(-c2nccc(Nc3ccnc(Nc4ccc(CN5C[C@H]6CC[C@@H](C5)N6)cc4)n3)n2)n1"
Found: 25.1 to 158 nM
